Tested on: SR leukemia
Experiment: NCI tumour cell line growth inhibition, 48 h; in the data active = GI50 below about 0.43 µM; inactive = the rest
Possible outcomes: label 1 for active, label 0 for inactive

>>> category_label("C[CH2][Pb]([CH2]C)([CH2]C)[O]C(=O)COc1ccccc1")
"label 0"
>>> category_label("C=C1C(=O)O[C@H]2[C@H]1CC/C(COC(=O)/C=C\\C(=O)NCc1ccc(Cn3c(=O)sn(CCCI)c3=O)cc1)=C\\CC[C@@]1(C)O[C@@H]21")
"label 1"
>>> category_label("O=Cc1cn(Cc2ccc(Cl)cc2)c2ccccc12")
"label 0"

* * *

Tested on: HOP-92 NSCLC
Assay: NCI tumour cell line growth inhibition, 48 h; in the data active = GI50 below about 0.43 µM; inactive = the rest
Possible outcomes: active, inactive

>>> category_label("COc1ccc2c(c1)[n+]([O-])c(C#N)c(NC(=O)c1cccs1)[n+]2[O-]")
"inactive"
>>> category_label("O=Cc1cn(Cc2ccc(Cl)cc2)c2ccccc12")
"inactive"
>>> category_label("C=CC(=O)N1C[C@H](COc2nc(Nc3cnn(C)c3)nc3[nH]cc(Cl)c23)[C@@H](OC)C1")
"inactive"
>>> category_label("C(=C1c2ccccc2-c2ccccc21)c1ccncc1")
"inactive"
>>> category_label("COc1ccc2nc3cccc([N+](=O)[O-])c3c(NCCNCCO)c2c1")
"active"

* * *

Test system: HOP-62 NSCLC
Test: NCI tumour cell line growth inhibition, 48 h
endpoint_name: TGI

>>> observed("CC(=O)N1CCC(Nc2cc(C(=O)NC[C@H](O)CN3CCc4ccccc4C3)ncn2)CC1")
"> 100 µM"
>>> observed("CC(C)=CC(=O)OC1C(CO)OC(Oc2cc(O)c3c(=O)cc(-c4ccc(O)c(O)c4)oc3c2)C(OC2OC(C)C(O)C(O)C2O)C1O (stereo unspecified)")
"> 100 µM"
>>> observed("N#Cc1nc(C(O)c2ccccc2)oc1N (stereo unspecified)")
"> 100 µM"
>>> observed("CCOC(=O)c1cn2c(n1)sc1cc(C)c(C)cc12")
"34.3 µM"
>>> observed("c1ccc2c(CC3NCCN3)cccc2c1")
"> 100 µM"
>>> observed("CC(=O)OCCOCn1c2c(c(=O)[nH]c1=O)CCC2")
"> 100 µM"
>>> observed("CC(O)CCc1ccc(Oc2c3ccccc3nc3occc23)cc1 (stereo unspecified)")
"31.9 µM"
>>> observed("CC(=O)N1C(Nc2cnc3ccccc3c2)CCN1c1ccccc1 (stereo unspecified)")
"> 10 µM"
>>> observed("COc1ccc2nc3ccccc3c(NCc3ccc(Cl)cc3)c2c1")
"3.44 µM"
>>> observed("O=C1CC2(CCC(O)(c3ccccc3)C(C(=O)c3ccccc3)C2)C(=O)c2ccccc2N1 (stereo unspecified)")
"> 100 µM"
>>> observed("Nc1ccc(I)cn1")
"> 100 µM"
>>> observed("[N-]=[N+]=Nc1c(N2CCOCC2)c(Cl)nc2ccccc12")
"> 100 µM"
>>> observed("CCCNc1[nH]c(C(=O)c2ccccc2)c(N)c1C(=S)Nc1ccccc1")
"> 100 µM"
>>> observed("O=C(Nc1ccccc1)c1cc(S(=O)(=O)n2cc[nH]c2=O)c(S)cc1Cl")
"> 100 µM"
>>> observed("COc1ccc(Nc2nc3c(N)cc(C(F)(F)F)cc3nc2-c2ccccc2)cc1OC")
"57.8 µM"
>>> observed("COc1nc(Cl)nc(Cl)c1Cl (tested in a mixture with another compound)")
"10.3 µM"
>>> observed("CCOC(=O)c1ccc(NC(=O)O/N=C(/Cl)CC)cc1")
"38.1 µM"
>>> observed("CC1(C)CC[C@]2(C(N)=O)CC[C@]3(C)C(=CC[C@@H]4[C@@]5(C)C/C(=C/c6cccnc6)C(=O)C(C)(C)[C@@H]5CC[C@]43C)[C@@H]2C1")
"10.1 µM"
>>> observed("CO/C(=N\\N=Cc1ccccc1)c1ccncc1")
"> 100 µM"
>>> observed("ClC1=C(Cl)C(Cl)(Cl)SS1")
"> 10 µM"
>>> observed("COc1cc2c(cc1OCc1ccccc1)N=CC1C[C@@H](O)CN1C2=O (stereo partly specified)")
"9.52 µM"
